target: MC1-R (Homo sapiens); construct: or, for MC1-R, in HBL cells; endogenous in cells; experiment: Assay for agonist activity: intracellular cAMP accumulation (functional assay); details: functional assays at MC1-R; HBL cells that express MC1-R; cAMP
Sequence (Q01726 whole entry): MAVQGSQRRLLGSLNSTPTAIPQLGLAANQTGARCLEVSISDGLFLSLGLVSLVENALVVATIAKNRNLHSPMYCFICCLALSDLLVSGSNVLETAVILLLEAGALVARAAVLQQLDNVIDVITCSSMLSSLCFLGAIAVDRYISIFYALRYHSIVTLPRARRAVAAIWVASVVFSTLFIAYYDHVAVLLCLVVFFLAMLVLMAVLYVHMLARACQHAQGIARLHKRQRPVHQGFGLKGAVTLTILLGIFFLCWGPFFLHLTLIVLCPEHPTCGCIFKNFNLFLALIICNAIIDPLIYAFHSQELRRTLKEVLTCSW
pEC50: −log10 of the molar value.
Tag: y if measured pEC50 is not below 8, n if it is.

In [3]: df
Out[3]:
                                  structure  label_value
0  COc1ccc(C[C@@H](NC(=O)CCc2c[nH]cn2)C(=O)N2CCC3(CC2)C(=O)N(Cc2ccccn2)CN3c2ccccc2)cc1            n

Enquiry: Identify whether the reported pEC50 of the following molecule is 8 or greater: COc1ccc(C[C@@H](NC(=O)CCc2cnc[nH]2)C(=O)N2CCC3(CC2)C(=O)N(C2CCCC2)CN3c2ccccc2)cc1
Return: y

Enquiry: Does CCCCN1CN(c2ccccc2)C2(CCN(C(=O)[C@@H](Cc3ccc(OC)cc3)NC(=O)[C@@H](N)Cc3cncn3C)CC2)C1=O have a reported pEC50 of at least 8?
Return: n

Enquiry: Threshold query (pEC50 >= 8) on CCN1CN(c2ccccc2)C2(CCN(C(=O)[C@@H](Cc3ccc(OC)cc3)NC(=O)[C@@H](N)Cc3cncn3C)CC2)C1=O
Return: n

Enquiry: Check this molecule for pEC50 at or above 8: COC(=O)CN1CN(c2ccccc2)C2(CCN(C(=O)[C@@H](Cc3ccc(OC)cc3)NC(=O)CCc3cnc[nH]3)CC2)C1=O
Return: n

Where do the numbers come from? From patent US8263608B2.
